molecular target: Alpha-1A adrenergic receptor (Homo sapiens, UniProt P35348); format: functional, cell-based; further: assay procedure not described here
Sequence (P35348 whole entry): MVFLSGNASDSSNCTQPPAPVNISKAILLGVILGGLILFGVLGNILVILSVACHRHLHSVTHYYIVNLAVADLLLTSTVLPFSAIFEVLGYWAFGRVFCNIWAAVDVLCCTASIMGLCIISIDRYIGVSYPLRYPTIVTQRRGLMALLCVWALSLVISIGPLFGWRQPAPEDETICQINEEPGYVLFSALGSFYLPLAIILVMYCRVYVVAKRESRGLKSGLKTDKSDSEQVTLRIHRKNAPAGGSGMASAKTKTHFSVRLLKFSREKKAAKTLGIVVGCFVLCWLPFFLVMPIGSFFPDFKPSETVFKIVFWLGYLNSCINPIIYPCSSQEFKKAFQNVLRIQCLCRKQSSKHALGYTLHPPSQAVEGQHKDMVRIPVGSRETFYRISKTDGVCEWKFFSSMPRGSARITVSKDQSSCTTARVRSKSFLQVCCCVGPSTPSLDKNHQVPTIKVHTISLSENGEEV
measurement.name: AC50

[[record]]
compound = "CC(=O)NC[C@H]1CN(c2ccc(N3CCOCC3)c(F)c2)C(=O)O1 [LINEZOLID]"
target_system = "Alpha-1A adrenergic receptor (Homo sapiens, UniProt P35348)"
measured = "> 30 µM"

[[record]]
compound = "Cc1c(C)c2c(c(C)c1O)CCC(C)(COc1ccc(CC3SC(=O)NC3=O)cc1)O2 (centres undefined) [TROGLITAZONE]"
target_system = "Alpha-1A adrenergic receptor (Homo sapiens, UniProt P35348)"
measured = "> 30 µM"

[[record]]
compound = "CC(=O)Oc1cccc2c1C(=O)c1c(OC(C)=O)cc(C(=O)O)cc1C2=O [DIACEREIN]"
target_system = "Alpha-1A adrenergic receptor (Homo sapiens, UniProt P35348)"
measured = "21 µM"

[[record]]
compound = "CCC(=O)O[C@H](CC(=O)O)C[N+](C)(C)C [LEVOCARNITINE PROPIONATE]"
target_system = "Alpha-1A adrenergic receptor (Homo sapiens, UniProt P35348)"
measured = "> 30 µM"

[[record]]
compound = "CC1=C(CC(=O)O)c2cc(F)ccc2/C1=C\\c1ccc([S+](C)[O-])cc1 (centres undefined)"
target_system = "Alpha-1A adrenergic receptor (Homo sapiens, UniProt P35348)"
measured = "> 30 µM"

[[record]]
compound = "N=C(N)NC(=O)Cc1c(Cl)cccc1Cl [GUANFACINE]"
target_system = "Alpha-1A adrenergic receptor (Homo sapiens, UniProt P35348)"
measured = "0.0245 µM"

[[record]]
compound = "NCC1(CC(=O)O)CCCCC1 [GABAPENTIN]"
target_system = "Alpha-1A adrenergic receptor (Homo sapiens, UniProt P35348)"
measured = "> 30 µM"

[[record]]
compound = "CCN(CC)Cc1nccn1-c1ccc([N+](=O)[O-])cc1C(=O)c1ccccc1Cl [NIZOFENONE]"
target_system = "Alpha-1A adrenergic receptor (Homo sapiens, UniProt P35348)"
measured = "> 30 µM"

[[record]]
compound = "O=C(O)c1nn(Cc2ccc(Cl)cc2Cl)c2ccccc12 [LONIDAMINE]"
target_system = "Alpha-1A adrenergic receptor (Homo sapiens, UniProt P35348)"
measured = "> 30 µM"


* * *

Collected AC50 values appear next to each entry.
molecular target: Prostaglandin G/H synthase 1 (Homo sapiens, UniProt P23219); type: functional; further: assay procedure not described here
Sequence (P23219 whole entry): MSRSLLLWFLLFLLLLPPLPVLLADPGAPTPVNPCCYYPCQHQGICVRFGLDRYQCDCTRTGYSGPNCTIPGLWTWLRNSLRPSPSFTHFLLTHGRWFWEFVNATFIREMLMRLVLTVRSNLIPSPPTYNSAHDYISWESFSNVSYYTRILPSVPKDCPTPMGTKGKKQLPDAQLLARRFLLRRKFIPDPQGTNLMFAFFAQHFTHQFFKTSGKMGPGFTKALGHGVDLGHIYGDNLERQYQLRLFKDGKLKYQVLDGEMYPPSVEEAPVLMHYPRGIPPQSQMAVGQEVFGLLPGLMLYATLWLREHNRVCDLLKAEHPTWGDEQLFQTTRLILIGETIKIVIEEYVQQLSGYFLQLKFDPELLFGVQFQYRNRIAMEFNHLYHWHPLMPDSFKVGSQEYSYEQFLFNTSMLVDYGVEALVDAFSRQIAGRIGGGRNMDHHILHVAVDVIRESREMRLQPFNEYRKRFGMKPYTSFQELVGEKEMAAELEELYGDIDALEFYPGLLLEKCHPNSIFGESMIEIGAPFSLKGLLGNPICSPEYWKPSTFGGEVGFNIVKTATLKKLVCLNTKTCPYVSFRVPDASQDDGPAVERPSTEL
measurement.name: AC50 (µM)

[[record]]
compound = "Cc1cn(-c2cc(NC(=O)c3ccc(C)c(Nc4nccc(-c5cnccn5)n4)c3)cc(C(F)(F)F)c2)cn1 [RADOTINIB]"
measure_unit = "µM"
value_prefix = "="
measured = 26

[[record]]
compound = "Cc1cnc(C(=O)O)c[n+]1[O-] [ACIPIMOX]"
measure_unit = "µM"
value_prefix = ">"
measured = 30

[[record]]
compound = "COc1ncnc(NS(=O)(=O)c2ccc(N)cc2)c1OC [SULFADOXINE]"
measure_unit = "µM"
value_prefix = ">"
measured = 30

[[record]]
compound = "CC(C)=CCC/C(C)=C/CC/C(C)=C/CC/C(C)=C/CC1=C(C)C(=O)c2ccccc2C1=O [MENATETRENONE]"
measure_unit = "µM"
value_prefix = "="
measured = 13.5

[[record]]
compound = "COCC(=O)O[C@]1(CCN(C)CCCc2nc3ccccc3[nH]2)CCc2cc(F)ccc2[C@@H]1C(C)C [MIBEFRADIL]"
measure_unit = "µM"
value_prefix = ">"
measured = 30

[[record]]
compound = "CC1(C)S[C@@H]2[C@H](NC(=O)[C@H](NC(=O)c3cnc4cccnc4c3O)c3ccccc3)C(=O)N2[C@H]1C(=O)O [APALCILLIN]"
measure_unit = "µM"
value_prefix = "="
measured = 17.6

[[record]]
compound = "CC(NCCC(c1ccccc1)c1ccccc1)c1ccccc1 (stereo not given) [FENDILINE]"
measure_unit = "µM"
value_prefix = ">"
measured = 30

[[record]]
compound = "O=C1[C@@H]2[C@H]3CC[C@H](C3)[C@@H]2C(=O)N1C[C@@H]1CCCC[C@H]1CN1CCN(c2nsc3ccccc23)CC1 [LURASIDONE]"
measure_unit = "µM"
value_prefix = ">"
measured = 30

[[record]]
compound = "C[C@@H](O)[C@H]1C(=O)N2C(C(=O)O)=C(S[C@@H]3CN[C@H](C(=O)Nc4cccc(C(=O)O)c4)C3)[C@H](C)[C@H]12"
measure_unit = "µM"
value_prefix = "="
measured = 10.2

[[record]]
compound = "CC(=O)O[C@]1(C(C)=O)CC[C@H]2[C@@H]3CCC4=CC(=O)CCC4=C3[C@@H](c3ccc(N(C)C)cc3)C[C@@]21C [ULIPRISTAL ACETATE]"
measure_unit = "µM"
value_prefix = ">"
measured = 30

[[record]]
compound = "COC(=O)Nc1nc2cc(C(=O)c3ccc(F)cc3)ccc2[nH]1 [FLUBENDAZOLE]"
measure_unit = "µM"
value_prefix = "="
measured = 2.17

[[record]]
compound = "N=C(N)NC(=O)c1nc(Cl)c(N)nc1N [AMILORIDE]"
measure_unit = "µM"
value_prefix = ">"
measured = 30

[[record]]
compound = "COc1c(OCCCN2CCOCC2)ccc2c1N=C(NC(=O)c1cnc(N)nc1)N1CCN=C21 [COPANLISIB]"
measure_unit = "µM"
value_prefix = ">"
measured = 30

[[record]]
compound = "CN1C(C(=O)Nc2ccccn2)=C(OC(=O)/C=C/c2ccccc2)c2ccccc2S1(=O)=O [PIROXICAM CINNAMATE]"
measure_unit = "µM"
value_prefix = "="
measured = 16.3

[[record]]
compound = "CC(=O)OC1CN2CCC1CC2 (stereo not given) [ACECLIDINE]"
measure_unit = "µM"
value_prefix = ">"
measured = 30

